All figures here come from the supplement of paper PMC10567573.

B1: ZNF449 (parent)
chain: CTHCSKSFRQRAGLIMHQVTHFRG

variants of: B1; assay: protein stability index of a GFP-peptide fusion (GPS, HEK-293T) (PSI 1-6); higher = more stable; conditions: c terminus: a fixed tail appended;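 also: lentivirally expressed fusions sorted by FACS into six bins by GFP to DsRed ratio, PSI derived from sequencing read proportions per bin multiplied by bin number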
assayReadout: protein stability index
# output: bare number, no unit

### Prompt What value of protein stability index has been recorded for this entry: `M16L`
### Response 1.98

### Prompt Entry to check: `T2L`
### Response 1.97

Others:
### Prompt What value of protein stability index has been recorded for this entry: `Q18I`
### Response 1.96

### Prompt Entry to check: `C1I`
### Response 1.74
